src = patent US20210330611A1

Listing of entries alongside the reported IC50.
- Tested on: LPS-induced microglia activation
- protocol.summary: Image-based assay of LPS-induced microglia activation (HTS and dose response)
- Assay type: cell-based, rat
- protocol.conditions: Rattus norvegicus, Microglia, Table 3; read-out: LPS IC50 (uM) (Suppl. Table 7)
Where a name gives a salt, the structure may show the parent alone.
Just the number in µM, nothing appended.

molecule	IC50 / µM
CC[C@]1(O)C[C@@H]2CN(CCc3c([nH]c4ccccc34)[C@@](C(=O)OC)(c3cc4c(cc3OC)N(C)[C@H]3[C@@](O)(C(=O)OC)[C@H](OC(C)=O)[C@]5(CC)C=CCN6CC[C@]43[C@@H]65)C2)C1 [Vinblastine sulfate, reference compound]	0.2

Let's switch to this molecule now.
Given the molecule CCN(CC)C(=O)C1(c2ccccc2)CC1CN (stereo not drawn) [Milnacipran hydrochloride, reference compound] , what is its reported IC50?
20

---

- Test system: fibrin- and LPS-induced microglia activation
- protocol.summary: cells
- Assay type: cell-based, rat
- protocol.conditions: classification by fibrin and LPS inhibition, HTS at 10 μM

compound	Quadrant (FIG. 5b)
CC1(C)[C@@H](O)CC[C@]2(C)[C@H]3C(=O)C=C4[C@@H]5C[C@@](C)(C(=O)O)CC[C@]5(C)CC[C@@]4(C)[C@]3(C)CC[C@@H]12 [Enoxolone]	Q4
C[C@H](N[C@@H](CCc1ccccc1)C(=O)O)C(=O)N1CCC[C@H]1C(=O)O [Enalaprilat]	Q4
CN[C@@H](C)[C@H](O)c1ccccc1.Cl [Ephedrine (1r,2s) Hydrochloride]	Q4

---

- System: primary rat microglia;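 note: share of dead cells sized under 150 µm2 at 10 µM in fibrin-stimulated microglia HTS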
- protocol.conditions: rat
measure.name: Fibrin % cell toxicity
Number plus unit, in that order.

Past entries and their recorded results:
molecule	measurement.target	Fibrin % cell toxicity
Cc1cc(C)nc(NS(=O)(=O)c2ccc(N)cc2)n1	primary rat microglia	0%
O=C([O-])[C@H](O)[C@@H](O)[C@H](O)[C@H](O)CO.[Na+] [Sodium Gluconate]	primary rat microglia	1%
C[C@@H]1O[C@@H](O[C@H]2C[C@@H](O)[C@]3(CO)[C@H]4[C@H](O)C[C@]5(C)[C@@H](C6=CC(=O)OC6)CC[C@]5(O)[C@@H]4CC[C@]3(O)C2)[C@H](O)[C@H](O)[C@H]1O	primary rat microglia	0%

Let's switch to this molecule now.
Given the molecule CN(C)CCN(Cc1cccs1)c1ccccn1 , what is its reported Fibrin % cell toxicity?
1%

---

- Tested on: primary rat microglia;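 note: share of dead cells sized under 150 µm2 at 10 µM in fibrin-stimulated microglia HTS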
- protocol.conditions: rat
measure.name: Fibrin % cell toxicity
Number plus unit, in that order.

Past entries and their recorded results:
compound	Fibrin % cell toxicity
Cc1cn(-c2cc(NC(=O)c3ccc(C)c(Nc4nccc(-c5cccnc5)n4)c3)cc(C(F)(F)F)c2)cn1	1%
CCN[C@H]1C[C@H](C)S(=O)(=O)c2sc(S(N)(=O)=O)cc21 [Dorzolamide]	1%
COc1cc2nc(N3CCN(C(=O)c4ccco4)CC3)nc(N)c2cc1OC	3%
CC/C(=C(/CC)c1ccc(O)cc1)c1ccc(O)cc1	1%

Given the compound CC(C)CC(N(C)C)C1(c2ccc(Cl)cc2)CCC1 (centres unmarked) , what is its reported Fibrin % cell toxicity?
1%

Given the compound CC(=O)O[C@]1(C(C)=O)CC[C@H]2[C@@H]3C=C(Cl)C4=CC(=O)[C@@H]5C[C@@H]5[C@]4(C)[C@H]3CC[C@@]21C [Cyproterone Acetate] , what is its reported Fibrin % cell toxicity?
1%

Given the compound COc1c2occc2cc2ccc(=O)oc12 , what is its reported Fibrin % cell toxicity?
0%

Given the compound CCC(COC(=O)c1cc(OC)c(OC)c(OC)c1)(c1ccccc1)N(C)C (centres unmarked) , what is its reported Fibrin % cell toxicity?
1%
